Can you tell me IC50 for the items I'm about to list?
- measured target: UniProt Q9NWZ3
- Sequence (Q9NWZ3 whole entry): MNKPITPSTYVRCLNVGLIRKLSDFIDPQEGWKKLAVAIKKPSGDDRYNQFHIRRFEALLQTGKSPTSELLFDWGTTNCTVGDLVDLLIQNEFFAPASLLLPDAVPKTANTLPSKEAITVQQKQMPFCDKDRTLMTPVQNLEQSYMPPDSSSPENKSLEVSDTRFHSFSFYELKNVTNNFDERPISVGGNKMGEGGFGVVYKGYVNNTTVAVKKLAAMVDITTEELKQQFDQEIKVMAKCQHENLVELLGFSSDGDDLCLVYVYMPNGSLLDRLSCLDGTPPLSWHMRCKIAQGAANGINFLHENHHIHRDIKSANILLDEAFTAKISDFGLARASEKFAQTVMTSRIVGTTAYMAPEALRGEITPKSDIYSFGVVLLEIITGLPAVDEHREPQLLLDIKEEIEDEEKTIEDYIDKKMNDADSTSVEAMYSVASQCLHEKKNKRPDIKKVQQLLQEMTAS
- assay name: RBC HotSpot Kinase Assay, IRAK4
- Format: biochemical
- Set-up: purchased Reaction Biology (RBC HotSpot)
- experimental conditions: isolated kinase enzyme, 33P-ATP, P81 filter-binding
Reply with just the number (in nM).

Please give the measured IC50 for this molecule: COc1cc2ncc(-c3ccnc(N[C@@H]4CCCNC4)n3)n2nc1C1COC1 [Compound 96a] 62

Could you share which IC50 value was measured for CC(O)(c1ccc2ncc(-c3nc(N[C@H]4CNCC[C@@H]4F)ncc3F)n2c1)C(F)(F)F (single isomer, unassigned) [Compound 35a] ? 0.7

I am curious: what IC50 value has been reported for COc1cc2ncc(-c3nc(N[C@H]4CNCC[C@@H]4F)ncc3F)n2nc1C(C)(C)O [Compound 45a] ? 8

Form field: reported IC50 of COc1cc2ncc(-c3nc(N[C@@H]4CCCNC4)ncc3F)n2nc1N1CCCS1(=O)=O [Compound 110a] 20

Returns the measured IC50 for the input molecule. Input: COc1cc2ncc(-c3ccnc(N[C@H]4CNC[C@@H]4F)n3)n2nc1C(C)(C)O [Compound 41a] 36

IC50 lookup needed for COc1cc2ncc(-c3ccnc(N[C@H]4CNCC[C@@H]4F)n3)n2nc1C12CC(C1)C2 [Compound 91a] , thanks. 5

Which IC50 value belongs to CC(O)(c1ccc2ncc(-c3cncc(N[C@@H]4CCCNC4)n3)n2c1)C(F)(F)F (single isomer, unassigned) [Compound 28a] ? 3

---

value type: Kd (nM)
Your answer is read as nM, so omit the unit and give the number.

Request: Kd, test system FLT3 Autoinh. (Homo sapiens, UniProt P36888), entry COc1cc2ncc(-c3nc(N[C@H]4CNCC[C@@H]4F)ncc3F)n2nc1C1COC1 [Compound 92a] 3.3

Tell me reported Kd for CC(C)(O)c1ccc2ncc(-c3nc(N[C@H]4CNCC[C@@H]4F)ncc3F)n2c1 [Compound 46a] , tested with FLT3 Autoinh. (Homo sapiens, UniProt P36888). 7.1

Return Kd measured with FLT3 Autoinh. (Homo sapiens, UniProt P36888) given this compound: COc1cc2ncc(-c3nc(N[C@H]4CNCC[C@@H]4F)ncc3F)n2nc1C1CC1 [Compound 1a] 2.2

---

Assign pIC50 to each entry below.
- Tested on: MOLM14 D835Y cells
- assay name: MOLM14 D835Y cell viability assay (Cell Titer Glo)
- Assay type: cell-based
- experimental conditions: Homo sapiens, MOLM-14, 48 h, cell viability, Cell Titer Glo, 48 hours; read-out: MOLM14 D835Y IC50
For clarity, pIC50 is expressed as the negative log10 of concentration in mol/L.

Given COc1cc2ncc(-c3ccnc(N[C@H]4CNC[C@@H]4F)n3)n2nc1C1CC(F)(F)C1 [Compound 20a] , state its recorded pIC50. 6.74

Would you kindly share the measured pIC50 for COc1cc2ncc(-c3nc(N[C@H]4CNC[C@@H]4F)ncc3F)n2nc1N1CCS(=O)(=O)CC1 [Compound 123a] ? 7.20

Return reported pIC50; argument: COc1cc2ncc(-c3cncc(N[C@H]4CNC[C@@H]4F)n3)n2nc1C1CC(F)(F)C1 [Compound 71a] 6.24

Query (molecule): CC(O)(c1ccc2ncc(-c3cncc(N[C@@H]4CCCNC4)n3)n2c1)C(F)(F)F (single isomer, unassigned) [Compound 28a] ; field requested: pIC50 6.69
